Test system: HBV
Test: HBV screening assay (viral DNA in baculovirus-HBV transduced HepG2 cells)
Format: cell-based
Conditions: read-out: EC50 (antiviral activity); HBV-transduced HepG2 cells, three days with compound, viral DNA by ELISA
pEC50: −log10 of the molar value.
experimental_endpoint: pEC50

Request: Please look up its pEC50: NC(=O)c1sc2nc3c(c(-c4cccs4)c2c1N)CN(C(=S)NCc1ccccc1)C3 [Compound 84]
Response: 5.00 to 6.00
